B1: glmS ribozyme (parent)
chain: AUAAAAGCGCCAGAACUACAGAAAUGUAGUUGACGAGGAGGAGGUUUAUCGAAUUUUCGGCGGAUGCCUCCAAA

variants of: B1; assay: self-cleavage kobs at 160 uM GlcN6P; higher = faster cleavage; RNA array; settings: with glucosamine-6-phosphate
Fewer inactive variants are shown than the library holds.
Please respond with reported self-cleavage kobs at 160 uM GlcN6P for every item in the list.

As a guide, the following entries are already answered.
primary_sequence="AUAAAAGCGCCAGAACUACAGAAAUGUAGUUGACGAGGAGGGGGUUUAUCGAAAUUUCGGCGGAUGCCUCCAAA [A42G U54A]" experimental_readout="self-cleavage kobs at 160 uM GlcN6P" result="0.00396 s⁻¹"
primary_sequence="AUAAAAGCGCCAGAACUACAGAAAUGUAGUUGACGAGAAGGAGGUUUAUCGAAUUUUCGUCGGAUGCCUCCAAA [G38A G60U]" experimental_readout="self-cleavage kobs at 160 uM GlcN6P" result="< 1e-05 s⁻¹"
primary_sequence="AUAAAAGCGCCAGAAGUACAGAAAUGUAGUUGACGAGGAGGAGUUUUAUCGAAUUUUCGGCGGAUGCCUCCAAA [C16G G44U]" experimental_readout="self-cleavage kobs at 160 uM GlcN6P" result="< 1e-05 s⁻¹"

Go through the items and report each one's self-cleavage kobs at 160 uM GlcN6P.
1. AUAAAAGCGCCAGAACUACAGAAAUGUAGUUGACGAGUAGGAGGUGUAUCGAAUUUUCGGCGGAUGCCUCCAAA [G38U U46G]
2. AUAAAAGCGCCAGAAUUACAGAAAUGUAGUUGACGAAGACGAAGUUUAUCGAAUUUUCGGCGGAUGCCUCCAAA [C16U G37A G40C G43A]
3. AUAAAAGCGCCAGAACUACAGAAAUGUAGUUCACGAGGAGAAGGUUUAUCGCAUUUUCGGCGGAUGCCUCCAAA [G32C G41A A52C]

Outgoing:
1: < 1e-05 s⁻¹; 2: < 1e-05 s⁻¹; 3: < 1e-05 s⁻¹

Hey, can you go through the list below and give me self-cleavage kobs at 160 uM GlcN6P for every item?
1. AUAAAAGCGCCAGAACUACAGAAAUGUAGUAGACGAGGAGGGGGUUUAUCGAAUUUUCGGCGGAUGCCUCCAAA [U31A A42G]
2. AUAAAAGCGCCAGGACUACAGAAAUGUAGUUGACGAGGAGGAGGUUUGUCGAAUUUUCGGCGGAUGCCUCCAAA [A14G A48G]
3. AUAAAACCGCCGGAACUACAGAAAUGUAGUUGUCGAGGAGGAGGUUUAUCUAAUUUUCGGCGGAUGCCUCCAAA [G7C A12G A33U G51U]
4. AUAAAAGCGCCAGAACUACAGAAAUGUAGUUGACGAGGAAGAGGUUUGUGGAAUUUUCGGCGGAUGCCUCCAAA [G40A A48G C50G]
5. AUAAAGGCGCCAGAACUACAGAAAUGUAGUUGACGAGGAGGAGGUUUAUCGAAUUUUCGGUGGAUGCCUCCAAA [A6G C61U]

Outgoing:
["0.00191 s⁻¹", "3.64e-05 s⁻¹", "< 1e-05 s⁻¹", "< 1e-05 s⁻¹", "< 1e-05 s⁻¹"]

Source: the supplement of paper PMC7125110
